testedTarget: Sphingosine kinase 2 (Homo sapiens, UniProt Q9NRA0)
Sequence (Q9NRA0 whole entry): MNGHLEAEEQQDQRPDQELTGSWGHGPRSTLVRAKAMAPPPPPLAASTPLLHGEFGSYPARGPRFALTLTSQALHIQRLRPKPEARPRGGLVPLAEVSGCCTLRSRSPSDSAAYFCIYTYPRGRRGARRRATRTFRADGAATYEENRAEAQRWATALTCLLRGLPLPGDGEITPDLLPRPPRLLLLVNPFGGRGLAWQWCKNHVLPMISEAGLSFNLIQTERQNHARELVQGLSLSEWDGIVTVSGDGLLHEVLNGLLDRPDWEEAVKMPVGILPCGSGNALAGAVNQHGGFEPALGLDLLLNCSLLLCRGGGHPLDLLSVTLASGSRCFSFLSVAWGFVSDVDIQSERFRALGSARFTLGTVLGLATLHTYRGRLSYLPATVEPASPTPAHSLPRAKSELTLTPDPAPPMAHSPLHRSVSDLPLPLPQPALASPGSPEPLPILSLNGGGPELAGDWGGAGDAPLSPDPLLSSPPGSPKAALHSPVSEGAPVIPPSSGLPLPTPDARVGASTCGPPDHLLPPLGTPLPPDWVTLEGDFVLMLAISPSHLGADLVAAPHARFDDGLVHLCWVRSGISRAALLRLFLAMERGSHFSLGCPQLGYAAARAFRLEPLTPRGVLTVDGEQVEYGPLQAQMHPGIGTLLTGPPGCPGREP
protocolText: Inhibition of recombinant SphK2 (unknown origin) using sphingosine as substrate assessed as inhibition constant by Lineweaver-burk plot analysis
parameter: Ki (µM)
Give your result in µM as a bare value.

Give the reported value of Ki for this record: CCCCOc1ccc(CC/C=C2\SC(=O)N(CCN)C2=O)cc1
6.5

###

System: MCF7
protocolText: Antiproliferative activity against human MCF7 cells assessed as cell growth inhibition measured after 48 hrs by MTT assay
Format: functional, cell-based
conditionInfo: MCF7, 48 h
Binarize IC50 at 30 µM; below is class 1, at or above is class 0.

Regarding O=C(c1ccc(OCc2noc(-c3ccc(Cl)cc3)n2)cc1)N1CCC[C@H]1CO , kindly confirm whether its IC50 is beneath 30 µM.
class 1

Regarding NC(=O)[C@H]1CCCN1C(=O)c1ccc(OCc2noc(-c3ccc(C(F)(F)F)cc3)n2)cc1 , kindly confirm whether its IC50 is beneath 30 µM.
class 1

Regarding O=C(NCCO)c1ccc(OCc2noc(-c3ccc(C(F)(F)F)cc3)n2)cc1 , kindly confirm whether its IC50 is beneath 30 µM.
class 0

Regarding NC(=O)[C@H]1CCCN1Cc1ccc(COc2cccc(OCc3ccccc3)c2)cc1 , kindly confirm whether its IC50 is beneath 30 µM.
class 1

###

testedTarget: UniProt:Q9NYA1
Sequence (Q9NYA1 whole entry): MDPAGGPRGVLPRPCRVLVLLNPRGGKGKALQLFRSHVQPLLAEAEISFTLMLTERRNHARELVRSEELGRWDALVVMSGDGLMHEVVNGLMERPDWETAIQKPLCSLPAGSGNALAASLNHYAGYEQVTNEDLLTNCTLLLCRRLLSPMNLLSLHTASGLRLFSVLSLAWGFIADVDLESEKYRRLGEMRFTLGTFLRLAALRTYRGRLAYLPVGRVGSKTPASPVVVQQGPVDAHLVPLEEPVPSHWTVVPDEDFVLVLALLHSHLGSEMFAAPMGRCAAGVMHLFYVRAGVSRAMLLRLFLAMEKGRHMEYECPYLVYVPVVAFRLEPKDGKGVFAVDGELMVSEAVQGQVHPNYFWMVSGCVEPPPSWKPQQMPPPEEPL
Binarize IC50 at 20 µM; below is met, at or above is not met.

Regarding O=C(c1ccc(OCc2noc(-c3ccc(Cl)cc3)n2)cc1)N1CCC[C@@H]1CO , kindly confirm whether its IC50 is beneath 20 µM.
met

Regarding O=C(NCCO)c1ccc(COc2cccc(OCc3ccccc3)c2)cc1 , kindly confirm whether its IC50 is beneath 20 µM.
not met

Regarding OCC1CCCN1Cc1ccc(COc2cccc(OCc3ccccc3)c2)cc1 (single isomer, unassigned) , kindly confirm whether its IC50 is beneath 20 µM.
met

Regarding NC(=O)[C@H]1CCCN1C(=O)c1ccc(OCc2noc(-c3ccc(C(F)(F)F)cc3)n2)cc1 , kindly confirm whether its IC50 is beneath 20 µM.
not met

Regarding OC[C@@H]1CCCN1Cc1ccc(COc2cccc(OCc3ccccc3)c2)cc1 , kindly confirm whether its IC50 is beneath 20 µM.
met

Regarding NC(=O)CNCc1ccc(COc2cccc(OCc3ccccc3)c2)cc1 , kindly confirm whether its IC50 is beneath 20 µM.
not met

Regarding O=C(c1ccc(OCc2noc(-c3ccc(Cl)cc3)n2)cc1)N1CCC[C@H]1CO , kindly confirm whether its IC50 is beneath 20 µM.
met

###

testedTarget: Sphingosine kinase 2 (Homo sapiens)
Sequence (Q9NRA0 whole entry): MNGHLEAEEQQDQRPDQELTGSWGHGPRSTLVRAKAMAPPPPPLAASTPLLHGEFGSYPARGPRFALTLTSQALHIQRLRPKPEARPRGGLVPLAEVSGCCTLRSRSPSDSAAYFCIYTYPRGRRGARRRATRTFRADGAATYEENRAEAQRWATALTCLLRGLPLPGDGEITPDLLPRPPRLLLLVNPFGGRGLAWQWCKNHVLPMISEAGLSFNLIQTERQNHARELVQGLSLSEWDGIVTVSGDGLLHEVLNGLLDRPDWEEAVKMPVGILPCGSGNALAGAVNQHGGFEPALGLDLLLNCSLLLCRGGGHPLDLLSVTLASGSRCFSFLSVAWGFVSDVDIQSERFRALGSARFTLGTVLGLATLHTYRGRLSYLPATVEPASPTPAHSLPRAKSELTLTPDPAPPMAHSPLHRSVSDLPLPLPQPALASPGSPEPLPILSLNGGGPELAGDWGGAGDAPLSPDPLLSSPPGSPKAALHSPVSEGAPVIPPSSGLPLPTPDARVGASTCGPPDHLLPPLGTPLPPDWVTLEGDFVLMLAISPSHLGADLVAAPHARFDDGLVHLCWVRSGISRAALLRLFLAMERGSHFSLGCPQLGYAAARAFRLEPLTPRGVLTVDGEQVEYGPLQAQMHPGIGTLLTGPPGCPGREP
Please provide measured log10 IC50 for the entries that follow.
Lab note - IC50 converted to log10 from values in µM.

Give the reported value of log10 IC50 for this record: NC(=O)[C@H]1CCCN1C(=O)c1ccc(COc2cccc(OCc3ccccc3)c2)cc1
-0.02

Give the reported value of log10 IC50 for this record: OC[C@@H]1CCCN1Cc1ccc(COc2cccc(OCc3ccccc3)c2)cc1
-2.72

Give the reported value of log10 IC50 for this record: NC(=O)[C@H]1CCCN1C(=O)c1ccc(OCc2noc(-c3ccc(C(F)(F)F)cc3)n2)cc1
-2.62

Give the reported value of log10 IC50 for this record: O=C(c1ccc(OCc2noc(-c3ccc(C(F)(F)F)cc3)n2)cc1)N1CCC[C@@H]1CO
-2.46

Give the reported value of log10 IC50 for this record: O=C(NCCO)c1ccc(OCc2noc(-c3ccc(C(F)(F)F)cc3)n2)cc1
-1.45

###

Tested on: MGC-803
protocolText: Antiproliferative activity against human MGC-803 cells assessed as cell growth inhibition measured after 48 hrs by MTT assay
Type: functional, cell-based
conditionInfo: MGC-803, 48 h
Binarize IC50 at 30 µM; below is met, at or above is not met.

Regarding OCC1CCCN1Cc1ccc(COc2cccc(OCc3ccccc3)c2)cc1 (single isomer, unassigned) , kindly confirm whether its IC50 is beneath 30 µM.
met

Regarding NC(=O)[C@@H]1CCCN1C(=O)c1ccc(COc2cccc(OCc3ccccc3)c2)cc1 , kindly confirm whether its IC50 is beneath 30 µM.
not met

Regarding NC(=O)CNC(=O)c1ccc(OCc2noc(-c3ccc(C(F)(F)F)cc3)n2)cc1 , kindly confirm whether its IC50 is beneath 30 µM.
met

Regarding NCCNC(=O)c1ccc(OCc2noc(-c3ccc(Cl)cc3)n2)cc1 , kindly confirm whether its IC50 is beneath 30 µM.
not met

Regarding O=C(NCCO)c1ccc(COc2cccc(OCc3ccccc3)c2)cc1 , kindly confirm whether its IC50 is beneath 30 µM.
not met

Regarding OC[C@@H]1CCCN1Cc1ccc(COc2cccc(OCc3ccccc3)c2)cc1 , kindly confirm whether its IC50 is beneath 30 µM.
not met

###

System: MGC-803
protocolText: Antiproliferative activity against human MGC-803 cells assessed as cell growth inhibition measured after 48 hrs by MTT assay
Format: functional, cell-based
conditionInfo: MGC-803, 48 h
Binarize IC50 at 30 µM; below is T, at or above is F.

Regarding NC(=O)[C@H]1CCCN1C(=O)c1ccc(COc2cccc(OCc3ccccc3)c2)cc1 , kindly confirm whether its IC50 is beneath 30 µM.
F

Regarding O=C(NCCO)c1ccc(OCc2noc(-c3ccc(C(F)(F)F)cc3)n2)cc1 , kindly confirm whether its IC50 is beneath 30 µM.
T

Regarding O=C(NCCO)c1ccc(OCc2noc(-c3ccc(Cl)cc3)n2)cc1 , kindly confirm whether its IC50 is beneath 30 µM.
F

Regarding O=C(c1ccc(OCc2noc(-c3ccc(C(F)(F)F)cc3)n2)cc1)N1CCC[C@@H]1CO , kindly confirm whether its IC50 is beneath 30 µM.
F

Regarding O=C(c1ccc(COc2cccc(OCc3ccccc3)c2)cc1)N1CCC[C@@H]1CO , kindly confirm whether its IC50 is beneath 30 µM.
F

Regarding NC(=O)[C@H]1CCCN1C(=O)c1ccc(OCc2noc(-c3ccc(Cl)cc3)n2)cc1 , kindly confirm whether its IC50 is beneath 30 µM.
T

Regarding NC(=O)[C@H]1CCCN1Cc1ccc(COc2cccc(OCc3ccccc3)c2)cc1 , kindly confirm whether its IC50 is beneath 30 µM.
F

Regarding NCCNC(=O)c1ccc(COc2cccc(OCc3ccccc3)c2)cc1 , kindly confirm whether its IC50 is beneath 30 µM.
T

Regarding NC(=O)[C@@H]1CCCN1Cc1ccc(COc2cccc(OCc3ccccc3)c2)cc1 , kindly confirm whether its IC50 is beneath 30 µM.
F

Regarding NC(=O)CNC(=O)c1ccc(COc2cccc(OCc3ccccc3)c2)cc1 , kindly confirm whether its IC50 is beneath 30 µM.
F

Regarding O=C(c1ccc(OCc2noc(-c3ccc(Cl)cc3)n2)cc1)N1CCC[C@@H]1CO , kindly confirm whether its IC50 is beneath 30 µM.
F

Regarding O=C(c1ccc(OCc2noc(-c3ccc(Cl)cc3)n2)cc1)N1CCC[C@H]1CO , kindly confirm whether its IC50 is beneath 30 µM.
T

Regarding NCCNC(=O)c1ccc(OCc2noc(-c3ccc(C(F)(F)F)cc3)n2)cc1 , kindly confirm whether its IC50 is beneath 30 µM.
F

Regarding O=C(c1ccc(OCc2noc(-c3ccc(C(F)(F)F)cc3)n2)cc1)N1CCC[C@H]1CO , kindly confirm whether its IC50 is beneath 30 µM.
F

Regarding NC(=O)[C@H]1CCCN1C(=O)c1ccc(OCc2noc(-c3ccc(C(F)(F)F)cc3)n2)cc1 , kindly confirm whether its IC50 is beneath 30 µM.
T

Regarding NC(=O)[C@@H]1CCCN1C(=O)c1ccc(OCc2noc(-c3ccc(Cl)cc3)n2)cc1 , kindly confirm whether its IC50 is beneath 30 µM.
F

Regarding NC(=O)[C@@H]1CCCN1C(=O)c1ccc(OCc2noc(-c3ccc(C(F)(F)F)cc3)n2)cc1 , kindly confirm whether its IC50 is beneath 30 µM.
T

Regarding O=C(c1ccc(COc2cccc(OCc3ccccc3)c2)cc1)N1CCC[C@H]1CO , kindly confirm whether its IC50 is beneath 30 µM.
F

Regarding NC(=O)CNCc1ccc(COc2cccc(OCc3ccccc3)c2)cc1 , kindly confirm whether its IC50 is beneath 30 µM.
F
